experiment: Kinetic solubility analysis; type: physicochemical; settings: 1× PBS, 24.2 °C, aqueous buffer, kinetic from dmso stock; pH 7.4 PBS, 1% DMSO, 24-hour incubation at ambient temperature
PARAMETER_MEASURED: solubility kinetic at 24 h (µg/mL)
The reply should be a number in µg/mL, with the unit left off.

// known answers, use as guide
Asked: Quick check: solubility kinetic at 24 h of CCCCCCOC(=O)C(C)(C)NP(=O)(CO[C@H](C)Cn1cnc2c(NC(C)=O)ncnc21)NC(C)(C)C(=O)OCCCCCC [Example 28] ?
Given back: 55

Asked: Quick check: solubility kinetic at 24 h of C[C@H](Cn1cnc2c(N)ncnc21)OCP(=O)(NC(C)(C)C(=O)OCC1CCC(F)(F)CC1)NC(C)(C)C(=O)OCC1CCC(F)(F)CC1 [Example 88] ?
Given back: 69

Asked: Quick check: solubility kinetic at 24 h of CCCCCCOC(=O)C(C)(C)NP(=O)(CO[C@H](C)Cn1cnc2c(N)ncnc21)NC(C)(C)C(=O)OC(C)C1CC1 (stereo partly drawn) [Example 81] ?
Given back: 61

Let us move to another entry and its solubility kinetic at 24 h.
Asked: Quick check: solubility kinetic at 24 h of CCCCOC(=O)C(C)(C)NP(=O)(CO[C@H](C)Cn1cnc2c(N)ncnc21)NC(C)(C)C(=O)OCCCC [Example 38] ?
Given back: 45

----------
assay: Kinetic solubility analysis; format: physicochemical; conditions: 1× PBS, 24.2 °C, aqueous buffer, kinetic from dmso stock; pH 7.4 PBS, 1% DMSO, 24-hour incubation at ambient temperature
PARAMETER_MEASURED: solubility kinetic at 24 h (mg/mL)
The reply should be a number in mg/mL, with the unit left off.

// known answers, use as guide
Asked: Quick check: solubility kinetic at 24 h of C[C@H](Cn1cnc2c(N)ncnc21)OCP(=O)(NC(C)(C)C(=O)OC1CCC(C)(C)CC1)NC(C)(C)C(=O)OC1CCC(C)(C)CC1 ?
Given back: 0.01

Asked: Quick check: solubility kinetic at 24 h of CC(C)OC(=O)C(C)(C)NP(=O)(CO[C@H](C)Cn1cnc2c(N)ncnc21)NC(C)(C)C(=O)OC(C)C ?
Given back: 0.053

Asked: Quick check: solubility kinetic at 24 h of CCC1(CC)CC(OC(=O)C(C)(C)NP(=O)(CO[C@H](C)Cn2cnc3c(N)ncnc32)NC(C)(C)C(=O)OC2CC(CC)(CC)C2)C1 ?
Given back: 0.004

Asked: Quick check: solubility kinetic at 24 h of CCCCCCOC(=O)C(C)(C)NP(=O)(CO[C@H](C)Cn1cnc2c(N)ncnc21)NC(C)(C)C(=O)O[C@H]1CC[C@H](C(F)(F)F)CC1 (stereo partly drawn) ?
Given back: 0.036

Asked: Quick check: solubility kinetic at 24 h of CCCCCCOC(=O)[C@](C)(CC)NP(=O)(CO[C@H](C)Cn1cnc2c(N)ncnc21)N[C@@](C)(CC)C(=O)OCCCCCC ?
Given back: 0.007

Others:
Asked: Quick check: solubility kinetic at 24 h of CCCCCCOC(=O)C(C)(C)NP(=O)(CO[C@H](C)Cn1cnc2c(NC(=O)OCCOC(=O)c3ccccc3)ncnc21)NC(C)(C)C(=O)OCCCCCC ?
Given back: 0.002

Asked: Quick check: solubility kinetic at 24 h of C[C@H](Cn1cnc2c(N)ncnc21)OCP(=O)(NC(C)(C)C(=O)OCC1CCCC1)NC(C)(C)C(=O)OCC1CCCC1 ?
Given back: 0.064

Asked: Quick check: solubility kinetic at 24 h of CCCCCCOC(=O)C(C)(C)NP(=O)(CO[C@H](C)Cn1cnc2c(N)ncnc21)NC(C)(C)C(=O)OCC1(F)CC1 (stereo partly drawn) ?
Given back: 0.06

Asked: Quick check: solubility kinetic at 24 h of CCCCCCOC(=O)C(C)(C)NP(=O)(CO[C@H](C)Cn1cnc2c(NC(=O)OCC(=O)OCc3oc(=O)oc3C)ncnc21)NC(C)(C)C(=O)OCCCCCC ?
Given back: 0.06

----------
solubility kinetic at 24 h reference
test: Kinetic solubility analysis; type: physicochemical; settings: 1× PBS, 24.2 °C, aqueous buffer, kinetic from dmso stock; pH 7.4 PBS, 1% DMSO, 24-hour incubation at ambient temperature
The reply should be a number in µg/mL, with the unit left off.

// known answers, use as guide
Asked: Quick check: solubility kinetic at 24 h of C[C@H](Cn1cnc2c(N)ncnc21)OCP(=O)(NC(C)(C)C(=O)OC1CC(C2CCC2)C1)NC(C)(C)C(=O)OC1CC(C2CCC2)C1 (stereo partly drawn) [Example 90] ?
Given back: 7

Asked: Quick check: solubility kinetic at 24 h of C[C@H](Cn1cnc2c(N)ncnc21)OCP(=O)(NC(C)(C)C(=O)O[C@H]1CC[C@H](C(F)(F)F)CC1)NC(C)(C)C(=O)O[C@H]1CC[C@H](C(F)(F)F)CC1 [Example 21] ?
Given back: 39

Asked: Quick check: solubility kinetic at 24 h of CCCCCCOC(=O)C(C)(C)NP(=O)(CO[C@H](C)Cn1cnc2c(NCc3oc(=O)oc3C)ncnc21)NC(C)(C)C(=O)OCCCCCC [Example 82] ?
Given back: 10

Others:
Asked: Quick check: solubility kinetic at 24 h of CCCCCCOC(=O)C(C)(C)NP(=O)(CO[C@H](C)Cn1cnc2c(N)ncnc21)NC1(C(=O)OCCCCCC)CCC1 (stereo partly drawn) [Example 18] ?
Given back: 22

----------
assay: Cytotoxicity assay in MT-4 cells; format: cell-based; conditions: human, uninfected MT-4 cells, average of at least two independent experiments, read-out: MT4 CC50
PARAMETER_MEASURED: CC50 at 5 days (µM)
The reply should be a number in µM, with the unit left off.

Asked: Quick check: CC50 at 5 days of CCCCCCOC(=O)C(NP(=O)(CO[C@H](C)Cn1cnc2c(N)ncnc21)NC(C(=O)OCCCCCC)(C1CC1)C1CC1)(C1CC1)C1CC1 ?
Given back: 7.34

Let us move to another entry and its CC50 at 5 days.
Asked: Quick check: CC50 at 5 days of C[C@H](Cn1cnc2c(N)ncnc21)OCP(=O)(NC(C)(C)C(=O)O[C@H]1CC[C@H](C(F)(F)F)CC1)NC(C)(C)C(=O)O[C@H]1CC[C@H](C(F)(F)F)CC1 ?
Given back: 4.47

----------
system: HBV; assay: Antiviral (HBV) assay in primary human hepatocytes (PHHs); assay type: cell-based; settings: Hepatitis B virus, Hepatocyte, 120 h; HBV (GTD) infected PHH, 5 days, HBV DNA in supernatant; average of at least two independent experiments
EC50 reference
The reply should be a number in nM, with the unit left off.

// known answers, use as guide
Asked: Quick check: EC50 of CCC[C@H]1CC[C@H](COC(=O)C(C)(C)NP(=O)(CO[C@H](C)Cn2cnc3c(N)ncnc32)NC(C)(C)C(=O)OC[C@H]2CC[C@H](CCC)CC2)CC1 ?
Given back: 4.56

Asked: Quick check: EC50 of CCC(CC)COC(=O)C(C)(C)NP(=O)(CO[C@H](C)Cn1cnc2c(N)ncnc21)NC(C)(C)C(=O)OCC(CC)CC ?
Given back: 0.69

Asked: Quick check: EC50 of CCCCCCOC(=O)C(C)(C)NP(=O)(CO[C@H](C)Cn1cnc2/c(=N\Cc3oc(=O)oc3C)n(Cc3oc(=O)oc3C)cnc21)NC(C)(C)C(=O)OCCCCCC ?
Given back: 3.37

Others:
Asked: Quick check: EC50 of C[C@H](Cn1cnc2c(N)ncnc21)OCP(=O)(NC(C)(C)C(=O)OCC1CC2(CCC2)C1)NC(C)(C)C(=O)OCC1CC2(CCC2)C1 (stereo partly drawn) ?
Given back: 3.1

Asked: Quick check: EC50 of CCC1(CC)CC(OC(=O)C(C)(C)NP(=O)(CO[C@H](C)Cn2cnc3c(N)ncnc32)NC(C)(C)C(=O)OC2CC(CC)(CC)C2)C1 ?
Given back: 5.45

Asked: Quick check: EC50 of C[C@H](Cn1cnc2c(N)ncnc21)OCP(=O)(NC(C)(C)C(=O)OCC1CCC(F)(F)CC1)NC(C)(C)C(=O)OCC1CCC(F)(F)CC1 ?
Given back: 2.5

----------
assay: Kinetic solubility analysis; assay type: physicochemical; details: 1× PBS, 24.2 °C, aqueous buffer, kinetic from dmso stock; pH 7.4 PBS, 1% DMSO, 24-hour incubation at ambient temperature
PARAMETER_MEASURED: log10 solubility kinetic at 24 h (log10 of the value in µg/mL)
// units: µg/mL (pre-log); metric: solubility kinetic at 24 h; scale: log10

// known answers, use as guide
Asked: Quick check: log10 solubility kinetic at 24 h of C[C@H](Cn1cnc2c(N)ncnc21)OCP(=O)(NC(C)(C)C(=O)OC1CC2(CCCCC2)C1)NC(C)(C)C(=O)OC1CC2(CCCCC2)C1 (stereo partly drawn) [Example 86] ?
Given back: 0.30

Asked: Quick check: log10 solubility kinetic at 24 h of CCCCCCOC(=O)C(C)(C)NP(=O)(CO[C@H](C)Cn1cnc2c(NC(=O)OCc3oc(=O)oc3C)ncnc21)NC(C)(C)C(=O)OCCCCCC [Example 33] ?
Given back: 1.15

Asked: Quick check: log10 solubility kinetic at 24 h of CCCCCCOC(=O)C1(NP(=O)(CO[C@H](C)Cn2cnc3c(N)ncnc32)NC2(C(=O)OCCCCCC)CCC2)CCC1 [Example 19] ?
Given back: 1.26

Asked: Quick check: log10 solubility kinetic at 24 h of CCCCCCOC(=O)C(C)(C)NP(=O)(CO[C@H](C)Cn1cnc2c(NC(=O)CC(C)(C)CC(=O)OCc3oc(=O)oc3C)ncnc21)NC(C)(C)C(=O)OCCCCCC [Example 102] ?
Given back: 1.00

Asked: Quick check: log10 solubility kinetic at 24 h of CCC(CC)COC(=O)C(C)(C)N[P@@](=O)(CO[C@H](C)Cn1cnc2c(N)ncnc21)NC1(C(=O)OCC(CC)CC)CC1 [Example 72] ?
Given back: 1.54

Let us move to another entry and its log10 solubility kinetic at 24 h.
Asked: Quick check: log10 solubility kinetic at 24 h of C[C@H](Cn1cnc2c(N)ncnc21)OCP(=O)(NC(C)(C)C(=O)OC1CCCC1)NC(C)(C)C(=O)OC1CCCC1 [Example 34] ?
Given back: 1.77
